Reference for the values: patent US11958861B2

Target: pseudo-kinase domain (JH2, amino-acids 536-812) of human Wild Type JAK2 (Homo sapiens, UniProt O60674, F794H/W659A/W777A)
Construct: pseudo-kinase domain (JH2, amino-acids 536-812 with 3 surface mutations W659A, W777A, F794H)
Sequence (O60674 536-812 W659A/W777A/F794H): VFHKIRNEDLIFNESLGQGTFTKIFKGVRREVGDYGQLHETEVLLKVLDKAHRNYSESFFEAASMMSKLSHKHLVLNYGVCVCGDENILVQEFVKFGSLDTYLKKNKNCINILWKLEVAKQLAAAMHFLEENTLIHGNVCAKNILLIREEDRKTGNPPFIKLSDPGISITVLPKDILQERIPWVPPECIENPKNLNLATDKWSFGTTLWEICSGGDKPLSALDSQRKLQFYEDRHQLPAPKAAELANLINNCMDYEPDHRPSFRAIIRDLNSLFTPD
Experiment: JAK2 LanthaScreen JH2-WT Binding Assay
Settings: 1 hour at 25° C.
pIC50: −log10 of the molar value. Structures can show the parent of a compound that is named as a salt.
# pIC50 annotations

compound="CN1C(=O)C2(CCN(C3(CC#N)CCC3)CC2)c2c1cnc1[nH]c(-c3cnn(CC(F)F)c3)c(-c3ccc4c(cnn4C)c3)c21 [Example 30, trifluoroacetate salt]" result="≥ 7.00"
compound="[2H]C([2H])([2H])n1ncc2cc(-c3c(-c4cnn(C)c4)[nH]c4ncc5c(c34)[C@@]3(CC[C@H](NS(=O)(=O)C4CC4)C3)C(=O)N5C)ccc21 (racemic) [Example 56, trifluoroacetate salt]" result="≥ 7.00"

We next turn to a different compound, shown below.
What pIC50 value was documented for this compound, CCCC(=O)N1CCC2(CC1)CC1(C2)C(=O)N(C)c2cnc3[nH]c(-c4cnn(C)c4)c(-c4ccc5c(cnn5C)c4)c3c21 [Example 59, trifluoroacetate salt] ?
≥ 7.00

---

Target: catalytic domain (JH1, amino acids 808-1132) of human JAK2 (Homo sapiens, UniProt O60674)
Construct: catalytic domain (JH1, amino acids 808-1132) of human JAK2; His (N)
Sequence (O60674 808-1132): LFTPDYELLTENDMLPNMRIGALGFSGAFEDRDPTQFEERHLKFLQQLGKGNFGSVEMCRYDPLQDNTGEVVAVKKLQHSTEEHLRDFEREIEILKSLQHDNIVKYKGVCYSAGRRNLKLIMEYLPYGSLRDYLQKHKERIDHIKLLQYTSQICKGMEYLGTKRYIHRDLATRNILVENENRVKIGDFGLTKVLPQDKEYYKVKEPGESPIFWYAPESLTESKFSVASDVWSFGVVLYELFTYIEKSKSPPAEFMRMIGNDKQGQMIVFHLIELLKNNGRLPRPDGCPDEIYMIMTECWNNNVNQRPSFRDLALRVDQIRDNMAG
Test: JAK2 HTRF Enzyme Activity Assay
Conditions: ATP 30 μM, read-out: ENZ 30UMATP
pIC50: −log10 of the molar value. Structures can show the parent of a compound that is named as a salt.
# pIC50 annotations

Sample answers from the record:
compound="COC(=O)N1CCC2(CC1)CC1(C2)C(=O)N(C)c2cnc3[nH]c(-c4cnn(C)c4)c(-c4ccc5c(cnn5C)c4)c3c21 [Example 61, trifluoroacetate salt]" readout_kind=pIC50 result="5.90 to 6.30"
compound="CN1C(=O)C2(CCN(CC3(CC#N)CC4(CCC4)C3)C2)c2c1cnc1[nH]c(-c3cnn(C)c3)c(-c3ccc4c(cnn4C)c3)c21 (racemic) [Example 70]" readout_kind=pIC50 result="< 5.60"
compound="O=C(O)C(F)(F)F.[2H]C([2H])([2H])N1C(=O)C2(CC3(CN(S(=O)(=O)CC)C3)C2)c2c1cnc1[nH]c(-c3cnn(CC)c3)c(-c3ccc(OC)cc3)c21 [Example 95]" readout_kind=pIC50 result="5.90 to 6.30"

What pIC50 value was documented for this compound, COC(=O)N1CC2(N3CCC4(CC3)C(=O)N(C)c3cnc5[nH]c(-c6cnn(C)c6)c(-c6ccc7c(cnn7C)c6)c5c34)CC1C2 [Example 83] ?
5.60 to 5.90

Follow-up entry: CCS(=O)(=O)N1CC2(C1)CC1(C2)C(=O)N(C)c2cnc3[nH]c(-c4cnn(C5CCCC5)c4)c(-c4ccc5c(cnn5C)c4)c3c21 [Example 90, trifluoroacetate salt]
5.60 to 5.90

---

Target: catalytic domain (JH1, amino acids 826-1132) of human JAK2 (Homo sapiens)
Construct: catalytic domain (JH1, amino acids 826-1132) of human JAK2
Sequence (O60674 826-1132): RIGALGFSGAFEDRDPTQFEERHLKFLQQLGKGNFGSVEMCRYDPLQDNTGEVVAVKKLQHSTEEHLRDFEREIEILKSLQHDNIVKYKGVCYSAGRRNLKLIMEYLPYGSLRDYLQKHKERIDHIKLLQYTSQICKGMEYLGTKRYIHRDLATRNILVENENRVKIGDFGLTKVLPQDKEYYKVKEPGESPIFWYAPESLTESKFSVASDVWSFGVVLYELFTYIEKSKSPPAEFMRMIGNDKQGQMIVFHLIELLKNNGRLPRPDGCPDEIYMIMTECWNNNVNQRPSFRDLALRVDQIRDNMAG
Experiment: JAK2 LanthaScreen JH1 Binding Assay
Conditions: 2 hours at 25° C.
Counter-ions that a name gives are not always drawn.
Readout kind: IC50

Sample answers from the record:
molecule=COC(=O)N1CCC(CC#N)(N2CCC3(CC2)C(=O)N(C)c2cnc4[nH]c(-c5cnn(C)c5)c(-c5ccc6c(cnn6C)c5)c4c23)CC1 readout_kind=IC50 result="500 to 1250 nM"
molecule="CN1C(=O)C2(CCN(C3(CC#N)CCC3)CC2)c2c1cnc1[nH]c(-c3cnn(CC(F)F)c3)c(-c3ccc4c(cnn4C)c3)c21 [Example 30, trifluoroacetate salt]" readout_kind=IC50 result="100 to 500 nM"

What IC50 value was documented for this molecule, CN1C(=O)C2(CCN(C3(C)CCS(=O)(=O)C3)CC2)c2c1cnc1[nH]c(-c3cnn(C)c3)c(-c3ccc4c(cnn4C)c3)c21 (racemic) ?
500 to 1250 nM

Follow-up entry: CCS(=O)(=O)N1CC2(C1)CC1(C2)C(=O)N(C)c2cnc3[nH]c(-c4cnn(CCOC)c4)c(-c4ccc5c(cnn5C)c4)c3c21 [Example 88, trifluoroacetate salt]
1250 to 2500 nM

Follow-up entry: CN1C(=O)C2(CCN(C3(CC#N)CCC3)CC2)c2c1cnc1[nH]c(-c3cnn(C)c3)c(-c3ccc4c(cnn4C)c3)c21 [Example 31, trifluoroacetate salt]
100 to 500 nM

Follow-up entry: CN1C(=O)C2(CCN(C3(CC#N)CCC3)CC2)c2c1cnc1[nH]c(-c3cnn4c3CCCC4)c(-c3ccc4c(cnn4C)c3)c21
> 2500 nM

Follow-up entry: CCS(=O)(=O)N1CC(CC#N)(N2CCC3(CC2)C(=O)N(C)c2cnc4[nH]c(-c5cnn(C)c5)c(-c5ccccc5)c4c23)C1 [Example 23, trifluoroacetate salt]
500 to 1250 nM

Follow-up entry: CN1C(=O)C2(CCN(C3(CC#N)CCC3)CC2)c2c1cnc1[nH]c(-c3cnn(CC(C)(C)O)c3)c(-c3ccc(C4CC4)cc3)c21 [Example 49, trifluoroacetate salt]
> 2500 nM

Follow-up entry: CN1C(=O)C2(CCN(C3(CC#N)CCC3)CC2)c2c1cnc1[nH]c(-c3cnn(C4CCOC4)c3)c(-c3ccc4c(cnn4C)c3)c21 (racemic) [Example 45, trifluoroacetate salt]
100 to 500 nM

Follow-up entry: COC(=O)N1CCC2(CC1)CC1(C2)C(=O)N(C)c2cnc3[nH]c(-c4cnn(C)c4)c(-c4ccc5c(cnn5C)c4)c3c21 [Example 61, trifluoroacetate salt]
500 to 1250 nM

Follow-up entry: CN1C(=O)C2(CCN(CCC#N)CC2)c2c1cnc1[nH]c(-c3ccc(CN4CCC(S(C)(=O)=O)CC4)cc3)c(-c3ccc4c(cnn4C)c3)c21 [Example 5, trifluoroacetate salt]
500 to 1250 nM

Follow-up entry: CCNC(=O)N1CC(CC#N)(N2CCC3(CC2)C(=O)N(C)c2cnc4[nH]c(-c5cnn(C)c5)c(-c5ccccc5)c4c23)C1 [Example 25, trifluoroacetate salt]
500 to 1250 nM

Follow-up entry: CCS(=O)(=O)N1CC2(C1)CC1(C2)C(=O)N(C)c2cnc3[nH]c(-c4cnn(C(C)C)c4)c(-c4ccc5c(cnn5C)c4)c3c21 [Example 54, trifluoroacetate salt]
500 to 1250 nM

Follow-up entry: O=C(O)C(F)(F)F.[2H]C([2H])([2H])n1ccc(-c2[nH]c3ncc4c(c3c2-c2ccc3c(cnn3C([2H])([2H])[2H])c2)C2(CC3(CCN(C(=O)CCC)CC3)C2)C(=O)N4C)c1
> 2500 nM

Follow-up entry: CC(=O)N1CCC(N2CC3(C2)C(=O)N(C)c2cnc4[nH]c(-c5ccc(CN6CCC(S(C)(=O)=O)CC6)cc5)c(-c5ccccc5)c4c23)CC1
> 2500 nM
